The origin of these recorded values is PubChem BioAssay AID1817.

Give measured displacement for each item. Keep answers brief.
molecular target: E3 ubiquitin-protein ligase SIAH1 (Homo sapiens) (UniProt Q8IUQ4); test: Siah-1 peptide-binding antagonists, primary screen, biochemical, fluorescence polarization, rhodamine-plectin, uHTS (AID 1817); conditions: Siah-1 / rhodamine-plectin peptide fluorescence polarization; at 20 µM; hits give high values;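 also: plate controls were Siah plus tracer with DMSO for no effect and tracer alone without Siah for full effect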
Sequence (Q8IUQ4 whole entry, looked up): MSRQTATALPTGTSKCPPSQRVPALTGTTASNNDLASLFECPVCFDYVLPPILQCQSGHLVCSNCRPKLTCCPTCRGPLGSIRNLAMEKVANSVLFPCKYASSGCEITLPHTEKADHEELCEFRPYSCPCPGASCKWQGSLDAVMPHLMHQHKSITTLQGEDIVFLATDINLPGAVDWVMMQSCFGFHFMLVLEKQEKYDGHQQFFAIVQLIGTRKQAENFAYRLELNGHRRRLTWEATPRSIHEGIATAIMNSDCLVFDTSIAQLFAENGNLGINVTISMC
Hit rate of the full screen: of about 290,000 compounds, about 50 (0.02%) were called active. Only a selection was taken, and actives are over-represented in it overall. Potency and affinity values are given separately.
Give bare numbers, in %.

Known results for compounds:
COc1ccc(C2=[N+]([O-])C(C)(C)C(c3ccccc3)=N2)cc1 : 6.6
Cc1ccsc1C=Nc1ccc(O)cc1 : 55.3
CCOCCCNc1nc2c(C)cccn2c(=O)c1/C=C1\SC(=S)N(C(C)CC)C1=O (stereo not given) : 53.2
COC(=O)CCSc1nc(N2CCOCC2)c2c(c1C#N)CC(C)(C)OC2 : 1.2
CCOCCCNc1nc2c(C)cccn2c(=O)c1/C=C1\SC(=S)N(CC(C)C)C1=O : -1.2

I need displacement for every entry listed below, if you could help.
1. Cc1ccc(-n2ncc3c2CC(C)(C)CC3NC(=O)c2ccc[n+]([O-])c2)cc1 (stereo not given)
2. CC12CCC(C(=O)N(NC(=O)c3ccc(O)cc3)C1=O)C2(C)C (stereo not given)
3. CCOC(=O)N/N=C\c1ccc(OC(=O)c2ccc3c(c2)OCO3)cc1
4. Nc1ccc(-c2c3ccc(=O)cc-3oc3cc(O)ccc23)cc1C(=O)O
5. Cn1c(Cl)c(/C=N/OC(=O)c2ccccc2Cl)c2ccccc21
6. CCO/C=C1/C(=O)N(CC)c2ccccc21

### Response
1: 4.8; 2: -2.6; 3: 1.3; 4: 3; 5: -1.7; 6: -7.3

---

target: E3 ubiquitin-protein ligase SIAH1 (Homo sapiens) (UniProt Q8IUQ4); experiment: Siah-1 peptide-binding antagonists, primary screen, biochemical, fluorescence polarization, rhodamine-plectin, uHTS (AID 1817); conditions: Siah-1 / rhodamine-plectin peptide fluorescence polarization; at 20 µM
Screen size: about 290,000 compounds; about 50 (0.02%) were called active.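 How the source made its calls: active means displacement of at least 50% at 20 µM, with a fluorescence ratio check between 0.3 and a set limit; inactive means the rest.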 Many of the other results were omitted from the sample, so actives are more common in it than they were. Entries with a potency or affinity are not part of this list.
Would you mind answering with one of these outcomes? active, inactive

// known answers, use as guide
Cc1nc(NC(=S)NC(=O)c2cncc(Br)c2)ccc1Br : inactive
O=c1cc2oc3cc(O)c(O)cc3c(-c3ccccc3O)c-2cc1O : active

### Prompt Would you mind telling me which call this test gave COC(=O)c1ccc2c(c1O)C(=O)c1ccccc1C2=O ?
### Response active

### Prompt Would you mind telling me which call this test gave O=S(=O)(O)c1cccc(N=Nc2c(O)ccc3ccccc23)c1 ?
### Response inactive

---

Give measured displacement for each item. Keep answers brief.
target: E3 ubiquitin-protein ligase SIAH1 (Homo sapiens) (UniProt Q8IUQ4); test: Siah-1 peptide-binding antagonists, primary screen, biochemical, fluorescence polarization, rhodamine-plectin, uHTS (AID 1817); settings: Siah-1 / rhodamine-plectin peptide fluorescence polarization; at 20 µM; hits give high values;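 also: plate controls were Siah plus tracer with DMSO for no effect and tracer alone without Siah for full effect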
Out of some 290,000 compounds screened, about 50 (0.02%) were called active. Many of the other results were omitted from the sample, so actives are more common in it than they were. Results with a measured potency or affinity are listed apart.
Numbers only, in %.

Known results for compounds:
Cc1ccc(S(=O)(=O)N2CCN(C(=O)c3cccs3)CC2)cc1C : -2
Cc1cc(C)n2nnnc2c1C#N : 1.6

I need displacement for every entry listed below, if you could help.
1. COCCNC(=O)/C(C#N)=C/c1ccc(OCc2ccc(F)cc2)cc1
2. Oc1ccccc1/C=N/NC(=S)NC1CC2CC1C1C=CCC21 (stereo not drawn)

### Response
-1.7
2.4

I need displacement for every entry listed below, if you could help.
1. Cc1ccc(N(C)S(=O)(=O)c2cc3c(cc2C)NC(=O)CO3)cc1
2. O=C(/C=C/c1ccc(OCCCF)cc1)NCc1ccc(Cl)cc1
3. Oc1ccccc1/C=N/Nc1cccc2cccnc12
4. CC(C)(C)c1ccc(C(CC(=O)O)NC(=O)Cc2ccccc2)cc1 (stereo not drawn)
5. Cc1ccc(NC(=O)Nc2cnccn2)cc1
6. CC1=C([N+](=O)[O-])C(c2ccccc2)NC(=O)N1 (stereo not drawn)

### Response
1. -1
2. 33.7
3. -2.4
4. 1.2
5. -0.7
6. -5.5

I need displacement for every entry listed below, if you could help.
1. O=S(=O)(c1ccc(Cl)cc1)N1CCN(C2CCN(Cc3ccccc3)CC2)CC1
2. COC(=O)c1ccc2c(=O)n(CCCN3CCCC3=O)c(=S)[nH]c2c1
3. CCn1c(SC(C)C(=O)O)nnc1-c1cccnc1 (stereo not drawn)
4. CC(C)CC(c1nnnn1C(C)C)N1CCN(c2cccc(Cl)c2)CC1 (stereo not drawn)
5. Cn1c(Cc2csc(N)n2)nnc1SCC(=O)NC1CCCCC1
6. C[C@@H](C[C@@H](O)[C@H](O)C(C)(C)O)[C@@H]1CC[C@]2(C)C3=CC[C@H]4C(C)(C)C(=O)CC[C@]4(C)[C@H]3CC[C@@]12C

### Response
1. 3
2. -3.7
3. -1.4
4. -5.9
5. 0.1
6. 2.8

I need displacement for every entry listed below, if you could help.
1. O=C(CNC(=O)c1ccccc1F)NC1CCN(Cc2ccccc2)CC1
2. Oc1c(/C=N/Nc2cccc3cccnc23)ccc2ccccc12
3. O=C(O)c1nc(-c2ccccc2)n(-c2cccc(C(F)(F)F)c2)n1
4. CCc1nnc(NS(=O)(=O)c2ccc(NC(=S)NC(=O)/C=C/c3ccccc3)cc2)s1
5. CC(=O)Nc1ccc(C(=S)NCCCO)cc1
6. COc1ccc(OCC(O)CNC(=O)c2ccccc2C(=O)O)cc1 (stereo not drawn)
7. COc1ccc(/C=c2\s/c(=C(/C#N)C(=O)NCc3ccco3)n(-c3ccccc3)c2=O)cc1

### Response
[-3.7, 93.1, -2.9, 11.7, -4.5, 8.1, 21.4]

---

target: E3 ubiquitin-protein ligase SIAH1 (Homo sapiens); assay: Siah-1 peptide-binding antagonists, primary screen, biochemical, fluorescence polarization, rhodamine-plectin, uHTS (AID 1817); conditions: Siah-1 / rhodamine-plectin peptide fluorescence polarization; at 20 µM; hits give high values;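 also: plate controls were Siah plus tracer with DMSO for no effect and tracer alone without Siah for full effect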
The campaign covered roughly 290,000 compounds. About 50 (0.02%) were called active. The sample as a whole holds a higher share of actives than the screen did. Measured potencies and affinities stand elsewhere.
Give measured displacement for each item. Keep answers brief.
One number for each entry, in %.

I need displacement for every entry listed below, if you could help.
1. O=C(Nc1ccc(S(=O)(=O)N2CCOCC2)cc1)c1ccc(F)cc1
2. Cc1[nH]c2ccccc2c1C(=O)CSc1nc2ccccc2[nH]1
3. O=C(Nc1ccc(Br)cc1)c1ccc(N2C(=O)C3CCCCC3C2=O)cc1 (stereo not drawn)
4. COc1cc(/C=C(\C#N)c2nc(-c3cc4ccccc4oc3=O)cs2)ccc1O
5. C/C(=N\NC(=O)c1c(Cl)cnn1C)c1cccc(NC(=O)COc2ccccc2)c1
6. CN1C(=O)NC(c2ccccc2[N+](=O)[O-])C2=C1CC(C)(C)CC2=O (stereo not drawn)
7. O=C(O)CCNc1cc(N2CCN(C(=O)c3ccco3)CC2)c2noc3c2c1C(=O)c1ccccc1-3
8. O=C(N/N=C/c1cccnc1)c1ccc2c(c1)OCCO2

### Response
[10.6, -0.5, -1, 2.9, 0.3, 4.2, 63, -2.3]

I need displacement for every entry listed below, if you could help.
1. COC(=O)c1cc2ccccc2oc1=O
2. COc1cc(S(=O)(=O)NC(C)C)ccc1Cl
3. CCOC(=O)C(C(=O)OCC)c1cc(Br)c2noc3c2c1C(=O)c1ccccc1-3
4. CCCOc1ccc(C(=O)CCC(=O)OCC(=O)Nc2cc(C)on2)cc1
5. O=c1ccc2cc(S(=O)(=O)N3CCN(c4ccc(Cl)cc4)CC3)ccc2o1
6. C=CCn1c(SCCC)nc(O)cc1=O
7. CCN(CC)CCOC(=O)c1ccc(N/C=C(/C#N)c2nc(-c3cccc(OC)c3)cs2)cc1
8. COc1cccc(C(C(=O)NC2CCCCC2)N(C(=O)c2cccs2)c2ccc3c(c2)OCO3)c1 (stereo not drawn)

### Response
-2.6
3
102
-2.7
-0.9
3
-5.2
-1

---

molecular target: E3 ubiquitin-protein ligase SIAH1 (Homo sapiens) (UniProt Q8IUQ4); assay: Siah-1 peptide-binding antagonists, primary screen, biochemical, fluorescence polarization, rhodamine-plectin, uHTS (AID 1817); details: Siah-1 / rhodamine-plectin peptide fluorescence polarization; at 20 µM; hits give high values;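 also: plate controls were Siah plus tracer with DMSO for no effect and tracer alone without Siah for full effect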
About 50 (0.02%) of roughly 290,000 compounds were called active. This is one part of a sample in which actives are shown more often than they occur. Results with a measured potency or affinity are listed apart.
Attribute measured: displacement (%)
Answers are plain numbers, in %.

Known results for compounds:
O=C(O)c1ccc(NS(=O)(=O)c2ccc(C(=O)Nc3ccccc3)cc2)cc1 : -5.7
NS(=O)(=O)c1ccc(NC(=O)c2ccc(-c3ccccc3)cc2)cc1 : 42.1
CCc1nnc(NC(=O)c2ccc(COc3ccccc3Cl)o2)s1 : 5.6
O=C(Nc1ccc(Nc2ccncc2)cc1)c1ccc(Nc2ccnc3ccc([N+](=O)[O-])cc23)cc1 : 60
O=C(Nc1ccc(Nc2ccncc2)cc1)c1ccc([N+](=O)[O-])cc1 : 2.7

I need displacement for every entry listed below, if you could help.
1. O=C(O)Cn1c(=S)sc2ccccc21
2. Cc1oc2c(C)c3oc(=O)c(CC(=O)N[C@@H](CC(C)C)C(=O)N[C@@H](Cc4ccccc4)C(=O)O)c(C)c3cc2c1C

### Response
[-2.4, 30.3]

Recorded result, COc1ccccc1CN1CC(C(=O)N(C)Cc2ccc(C)o2)CCC1=O (stereo not drawn) , displacement: -3.9
